Ref: patent US7812170B2

# System: Spodoptera littoralis
# assay info: Activity against Spodoptera littoralis (sprayed soya plants)
# Assay type: in vivo
# study conditions: 72 h, 400 ppm active ingredient, sprayed young soya plants, 1st instar caterpillars, 3 days, read-out: percentage reduction in the population and in the feeding damage (% activity)
test readout: inhibition at 400 ppm

[
  {
    "compound": "CNC(=O)c1nc2ccccc2c(C)c1NC(=O)c1cc(C(F)(F)F)nn1-c1ncccc1Cl [Compound T75.1]",
    "test readout": "inhibition at 400 ppm",
    "assay result": "> 80%"
  },
  {
    "compound": "CCNC(=O)c1cc2cc(Br)ccc2c(Cl)c1NC(=O)c1cc(C(F)(F)F)nn1-c1ncccc1Cl [Compound T2.2]",
    "test readout": "inhibition at 400 ppm",
    "assay result": "> 80%"
  },
  {
    "compound": "CC(C)NC(=O)c1cc2cc(Br)ccc2c(Br)c1NC(=O)c1cc(C(F)(F)F)nn1-c1ncccc1Cl [Compound T9.3]",
    "test readout": "inhibition at 400 ppm",
    "assay result": "> 80%"
  }
]

###

[
  {
    "molecule": "CNC(=O)c1cc2c(nc1NC(=O)c1cc(C(F)(F)F)nn1-c1ncccc1Cl)CCCC2",
    "melting point": "145 to 147 °C"
  },
  {
    "molecule": "CNC(=O)c1c(NC(=O)c2cc(C(F)(F)F)nn2-c2ncccc2Cl)nc2c(c1-c1ccccc1)CCCC2",
    "melting point": "165 to 168 °C"
  },
  {
    "molecule": "CC1c2ccccc2C[C@H](C(=O)NC2CC2)[C@@H]1NC(=O)c1cc(C(F)(F)F)nn1-c1ncccc1Cl (stereo partly shown)",
    "melting point": "192 to 194 °C"
  },
  {
    "molecule": "CNC(=O)c1cc2c(c(Br)c1NC(=O)c1cc(C(F)(F)F)nn1-c1ncccc1Cl)OC(C)(C)O2",
    "melting point": "274 to 276 °C"
  },
  {
    "molecule": "CNC(=O)[C@H]1Cc2ccccc2C[C@H]1NC(=O)c1cc(C(F)(F)F)nn1-c1ncccc1Cl",
    "melting point": "226 to 228 °C"
  },
  {
    "molecule": "CNC(=O)c1c(NC(=O)c2cc(C(F)(F)F)nn2-c2ncccc2Cl)nc2c(c1-c1ccccc1)CCCCC2",
    "melting point": "211 to 213 °C"
  },
  {
    "molecule": "CNC(=O)c1cc2c(c(C)c1NC(=O)c1cc(C(F)(F)F)nn1-c1ncccc1Cl)OC(C)(C)O2",
    "melting point": "242 to 244 °C"
  },
  {
    "molecule": "CNC(=O)c1c(NC(=O)c2cc(C(F)(F)F)nn2-c2ncccc2Cl)sc2c1CCCC2",
    "melting point": "261 to 263 °C"
  },
  {
    "molecule": "CC(C)NC(=O)[C@H]1Cc2ccccc2C(C)[C@H]1NC(=O)c1cc(C(F)(F)F)nn1-c1ncccc1Cl (stereo partly shown)",
    "melting point": "223 to 225 °C"
  },
  {
    "molecule": "CC(C)NC(=O)c1cc2c(nc1NC(=O)c1cc(C(F)(F)F)nn1-c1ncccc1Cl)CCCC2",
    "melting point": "143 to 145 °C"
  },
  {
    "molecule": "CNC(=O)[C@H]1Cc2ccccc2C(C)[C@H]1NC(=O)c1cc(C(F)(F)F)nn1-c1ncccc1Cl (stereo partly shown)",
    "melting point": "205 to 207 °C"
  },
  {
    "molecule": "CNC(=O)c1sc2nsc(C)c2c1NC(=O)c1cc(C(F)(F)F)nn1-c1ncccc1Cl",
    "melting point": "264 to 266 °C"
  },
  {
    "molecule": "O=C(N[C@@H]1Cc2ccccc2C[C@@H]1C(=O)NC1CC1)c1cc(C(F)(F)F)nn1-c1ncccc1Cl",
    "melting point": "230 to 233 °C"
  },
  {
    "molecule": "COC1CCc2c(sc(NC(=O)c3cc(C(F)(F)F)nn3-c3ncccc3Cl)c2C(=O)NC(C)C)C1 (stereo not shown)",
    "melting point": "206 to 207 °C"
  },
  {
    "molecule": "CC(C)NC(=O)[C@H]1Cc2ccccc2C[C@H]1NC(=O)c1cc(C(F)(F)F)nn1-c1ncccc1Cl",
    "melting point": "229 to 232 °C"
  },
  {
    "molecule": "CSCC(C)(C)NC(=O)[C@H]1Cc2ccccc2C[C@H]1NC(=O)c1cc(C(F)(F)F)nn1-c1ncccc1Cl",
    "melting point": "184 to 186 °C"
  },
  {
    "molecule": "CC(C)NC(=O)c1c(NC(=O)c2cc(C(F)(F)F)nn2-c2ncccc2Cl)nc2c(c1-c1ccccc1)CCCC2",
    "melting point": "146 to 148 °C"
  },
  {
    "molecule": "CNC(=O)c1c(NC(=O)c2cc(C(F)(F)F)nn2-c2ncccc2Cl)nc2c(c1-c1cccc(Cl)c1)CCCC2",
    "melting point": "183 to 185 °C"
  },
  {
    "molecule": "CNC(=O)c1c(NC(=O)c2cc(C(F)(F)F)nn2-c2ncccc2Cl)sc2c1CCC(OC)C2 (stereo not shown)",
    "melting point": "133 to 135 °C"
  },
  {
    "molecule": "CC(C)NC(=O)c1c(NC(=O)c2cc(C(F)(F)F)nn2-c2ncccc2Cl)nc2c(c1-c1ccccc1)CCCCC2",
    "melting point": "269 to 270 °C"
  },
  {
    "molecule": "Cc1snc2sc(C(=O)NC(C)C)c(NC(=O)c3cc(C(F)(F)F)nn3-c3ncccc3Cl)c12",
    "melting point": "261 to 263 °C"
  },
  {
    "molecule": "CC(C)NC(=O)c1c(NC(=O)c2cc(C(F)(F)F)nn2-c2ncccc2Cl)sc2c1CCCC2",
    "melting point": "246 to 248 °C"
  },
  {
    "molecule": "CC(C)NC(=O)c1c(NC(=O)c2cc(C(F)(F)F)nn2-c2ncccc2Cl)nc2c(c1-c1cccc(Cl)c1)CCCC2",
    "melting point": "259 to 260 °C"
  },
  {
    "molecule": "CNC(=O)c1cc2c(c(Cl)c1NC(=O)c1cc(C(F)(F)F)nn1-c1ncccc1Cl)OC(F)(F)O2",
    "melting point": "265 to 267 °C"
  },
  {
    "molecule": "Cc1c(NC(=O)c2cc(C(F)(F)F)nn2-c2ncccc2Cl)c(C(=O)NC(C)C)cc2c1OC(C)(C)O2",
    "melting point": "256 to 258 °C"
  }
]
